Where do these numbers come from? They come from PubChem BioAssay (NCI).

Below, each entry is listed with its recorded TGI.
- Tested on: IGROV1 ovarian
- Assay Method Text: NCI tumour cell line growth inhibition, 48 h
Observable: TGI

Compound: COc1cc(-c2nc3ccc(N4CCN(C)CC4)cc3[nH]2)c(OC)c2[nH]c(COC(C)=O)nc12
Observable: TGI
Endpoint Value: > 100 µM
//
Compound: C=CCNC(=S)N1CC(C)C(=O)Nc2cc(Cl)ccc21 (stereo not given)
Observable: TGI
Endpoint Value: > 100 µM
//
Compound: CC1(C)[C@@H]2C[C@H]1[C@@H](Cc1cccc(C[C@H]3c4cc(-c5ccccn5)ncc4[C@H]4C[C@@H]3C4(C)C)c1)c1cc(-c3ccccn3)ncc12
Observable: TGI
Endpoint Value: > 53.3 µM
//
Compound: CCOC(=O)C(=O)C=P(c1ccccc1)(c1ccccc1)c1ccccc1
Observable: TGI
Endpoint Value: > 100 µM
//
Compound: COC(=O)c1c(C(=O)OC)c2ccccn2c1-c1cc(OC)c(Br)c(=O)o1
Observable: TGI
Endpoint Value: > 100 µM
//
Compound: CC1=CC(C)=NN=C(N)N1S(=O)(=O)c1cc(C)c(Cl)cc1SCc1ccccc1
Observable: TGI
Endpoint Value: > 100 µM
//
Compound: COc1ccc2c3c(Nc4cccc(/C(C)=N\O)c4)[nH]c4ccccc4c-3c(N=O)c2c1
Observable: TGI
Endpoint Value: 84.5 µM
//
Compound: CCN(CC)CCCC(C)Nc1ccnc2cc(Cl)ccc12 (stereo not given)
Observable: TGI
Endpoint Value: > 100 µM
//
Compound: Nc1c(C(=O)Nc2ccccc2)sc2nc3c(cc12)CCCCC3
Observable: TGI
Endpoint Value: > 100 µM
//
Compound: O=C1CSC(=S)N1c1ccco1
Observable: TGI
Endpoint Value: > 100 µM

----------
- Test system: HOP-62 NSCLC
- Assay Method Text: NCI tumour cell line growth inhibition, 48 h
Below, each entry is listed with its recorded TGI.
Observable: TGI

Compound: N#CC1(C#N)NC(c2ccccc2)C(C#N)(C#N)NC1c1ccccc1 (stereo not given)
Endpoint Value: > 100 µM

Compound: CCOC(=O)c1nc2ccc(C(F)(F)F)cc2nc1Nc1cc(OC)c(OC)c(OC)c1
Endpoint Value: > 100 µM

Compound: CC(O)C1(CNc2cc(Cl)nc(N)n2)CCCCC1 (stereo not given)
Endpoint Value: > 100 µM

Compound: COC(=O)c1ccc2c(c1)C(=O)c1c-2n(CCCCl)c(=O)c2cc([N+](=O)[O-])ccc12
Endpoint Value: > 100 µM

Compound: Cc1cccc(-n2c(N)c(-c3nc4ccccc4[nH]3)sc2=S)c1
Endpoint Value: 78.9 µM

Compound: O=C1CSC(c2c[nH]c3ccccc23)N1c1ccc(Cl)cc1 (stereo not given)
Endpoint Value: > 100 µM

Compound: N/N=C1\C(=O)N(Cc2ccccc2)C(=O)C1C(=O)NCc1ccccc1 (stereo not given)
Endpoint Value: > 100 µM

Compound: O=c1[nH]nc(NCc2ccccc2)c2nnn(Cc3ccccc3)c12
Endpoint Value: > 100 µM

Compound: COc1cccc(/C=C/C(=O)c2ccc(SC)cc2)c1OC
Endpoint Value: 34.2 µM

Compound: N#CC(N=Nc1ccccc1C(=O)O)C(N)=O (stereo not given)
Endpoint Value: > 100 µM

Compound: O=C(CCl)NCCNc1nccc(Nc2ccc(S(=O)(=O)Nc3ccccn3)cc2)n1
Endpoint Value: 5.46 µM

Compound: CN(CC(=O)O)c1ncc2c(n1)C=CCC2
Endpoint Value: > 100 µM

Compound: COc1ccc(OC)c(NCC(=O)Nn2cnc3ccc(S(=O)(=O)Nc4cc(OC)ccc4OC)cc3c2=O)c1
Endpoint Value: > 100 µM

Compound: NC(N)=NS(=O)(=O)c1ccc(N/N=C2/CCOC2=O)cc1
Endpoint Value: 77.8 µM

Compound: Cn1c(=O)c(Oc2ccc(F)cc2F)cc2cnc(NC(C)(C)CO)nc21
Endpoint Value: > 25 µM

Compound: COC(OC)c1cc2c(cc1C=O)OCO2
Endpoint Value: > 100 µM

Compound: CCCCC(CCCCCC(CCCC)NCc1ccc2c(c1)OCO2)NCc1ccc2c(c1)OCO2 (stereo not given)
Endpoint Value: 2.13 µM

Compound: Nc1ccc2[nH]c(-c3cccc(C(F)(F)F)c3)cc(=O)c2c1
Endpoint Value: > 100 µM

Compound: COc1cc(-c2nc3ccc(N4CCN(C)CC4)cc3[nH]2)c(OC)c2[nH]c(COC(C)=O)nc12
Endpoint Value: > 100 µM

Compound: Oc1ccc(Nc2ccc3ccccc3c2)cc1
Endpoint Value: 41.5 µM

Compound: COc1cc2c(c(OC)c1OC)-c1ccc(O)cc1[C@@H](NC(C)=O)CC2
Endpoint Value: > 100 µM

Compound: COc1cc(CSc2ccc(O)cc2)cc(OC)c1OC
Endpoint Value: > 100 µM

Compound: CC/C=C\C[C@H](F)C/C=C1/C(=O)C=C[C@@H]1C/C=C\CCCC(=O)OC
Endpoint Value: 3.45 µM

Compound: C=C1CC2(CC(c3ccccc3Cl)OC(c3ccccc3Cl)C2)OC1=O (stereo not given)
Endpoint Value: 21.1 µM

Compound: N#CC(/C(CCC(=O)Nc1ccc(Cl)cc1)=N/NC(=O)c1cc2ccccc2cc1O)c1ccccc1 (stereo not given)
Endpoint Value: 85.3 µM

----------
Below, each entry is listed with its recorded TGI.
- Tested on: SR leukemia
- Assay Method Text: NCI tumour cell line growth inhibition, 48 h

Molecule: CC1=CC(C)=NN=C(N)N1S(=O)(=O)c1cc(C)c(Cl)cc1SCc1ccccc1
TGI: > 100 µM
--
Molecule: COc1cc(CSc2ccc(O)cc2)cc(OC)c1OC
TGI: > 100 µM
--
Molecule: O=c1[nH]nc(NCc2ccccc2)c2nnn(Cc3ccccc3)c12
TGI: > 100 µM
--
Molecule: Cc1cc(Cl)nc2nc(Cl)c(N)cc12
TGI: > 25.2 µM
--
Molecule: CC(C)C12Cc3c(ccc4ccccc34)OC1(C)Oc1ccc3ccccc3c1C2 (stereo unspecified)
TGI: > 100 µM
--
Molecule: NS(=O)(=O)c1nnc(NC(=O)C23CC4CC(CC(C4)C2)C3)s1
TGI: > 100 µM

----------
- System: KM12 colon
- Assay Method Text: NCI tumour cell line growth inhibition, 48 h
Below, each entry is listed with its recorded TGI.
Observable: TGI

Smi: CCOC(=O)C(=O)Nc1nc2c(OCC)cccc2s1
Endpoint Value: > 100 µM
--
Smi: CO[C@@H]1C=C[C@@]23c4cc5c(cc4CN(C[C@@H]2O)[C@H]3C1)OCO5
Endpoint Value: > 100 µM
--
Smi: Cc1c(C)c(C)c(Cn2[nH]c(=O)n(C)c2=O)c(C)c1C
Endpoint Value: > 100 µM

----------
- Test system: HOP-92 NSCLC
- Assay Method Text: NCI tumour cell line growth inhibition, 48 h

Smi: CSC(=NC#N)S/C=C/C(=O)c1ccccc1
Measured Target: HOP-92 NSCLC
TGI: > 100 µM
--
Smi: NNC(=O)CC(=O)Nc1cccc(Cl)c1
Measured Target: HOP-92 NSCLC
TGI: > 100 µM
--
Smi: COc1ccc(OC)c(NCC(=O)Nn2cnc3ccc(S(=O)(=O)Nc4cc(OC)ccc4OC)cc3c2=O)c1
Measured Target: HOP-92 NSCLC
TGI: > 100 µM
--
Smi: CCOC(=O)c1cc(-n2nnc3ccccc32)cn1C
Measured Target: HOP-92 NSCLC
TGI: > 10 µM
--
Smi: O=C(O)C[C@@H](Cl)[C@H](NC(=O)OCc1ccccc1)C(=O)O
Measured Target: HOP-92 NSCLC
TGI: > 100 µM
--
Smi: COc1ccc(/C(C)=N/NC(=O)c2ccncc2)c(OC)c1
Measured Target: HOP-92 NSCLC
TGI: > 10 µM
--
Smi: Cc1c(O)c(N=Nc2nc3ccccc3s2)c2ccccc2c1O
Measured Target: HOP-92 NSCLC
TGI: > 50 µM

----------
Below, each entry is listed with its recorded TGI.
- Tested on: UACC-257 melanoma
- Assay Method Text: NCI tumour cell line growth inhibition, 48 h

Compound: O=C(Nc1ccc(Cl)cc1C(F)(F)F)C(=O)C1CCCS1(=O)=O (configuration not stated)
TGI: > 100 µM
--
Compound: C=CC(O)(CBr)CCC(Br)C(=C)C (configuration not stated)
TGI: > 10 µM
--
Compound: Cn1c(=O)c(Oc2ccc(F)cc2F)cc2cnc(NC(C)(C)CO)nc21
TGI: > 25 µM
--
Compound: CCCCCCCCCCCCOP(=O)(O)OP(=O)(O)OCC1OC(n2ccc(N)nc2=O)CC1O (configuration not stated)
TGI: > 100 µM
--
Compound: CCOC(=O)C(=O)C=P(c1ccccc1)(c1ccccc1)c1ccccc1
TGI: > 100 µM
--
Compound: CC1CN=C(NS(=O)(=O)c2cc(C(=O)Nc3ccc(Cl)cc3)c(Cl)cc2S)NN1 (configuration not stated)
TGI: > 100 µM
--
Compound: COc1cc(CSc2ccc(O)cc2)cc(OC)c1OC
TGI: > 100 µM
--
Compound: O=C(O)C[C@@H](Cl)[C@H](NC(=O)OCc1ccccc1)C(=O)O
TGI: > 100 µM
--
Compound: CCNC(=O)c1cc(Cl)ccc1NC(=O)C12CC3CC(CC(C3)C1)C2
TGI: > 100 µM
--
Compound: COc1cc2c(c(OC)c1OC)-c1ccc(O)cc1[C@@H](NC(C)=O)CC2
TGI: > 100 µM
--
Compound: COc1ccc(C2=NN(c3ccccc3)C[N+](c3ccc(C)cc3)=N2)cc1
TGI: > 100 µM
--
Compound: Cc1cccc(Br)[n+]1[O-]
TGI: > 100 µM
--
Compound: O=S(=O)([O-])c1ccc(N=Cc2ccccc2[O-])cc1.O=S(=O)([O-])c1ccc(N=Cc2ccccc2[O-])cc1.[Co+2]
TGI: > 100 µM
--
Compound: COC1CCON1C(=O)c1ccccc1 (configuration not stated)
TGI: > 10 µM
--
Compound: N/N=C1\C(=O)N(Cc2ccccc2)C(=O)C1C(=O)NCc1ccccc1 (configuration not stated)
TGI: > 100 µM
--
Compound: CC(C)N1CCN(c2ccncc2S(=O)(=O)N2CCCCC2)CC1
TGI: > 100 µM
--
Compound: NC(N)=NCC1CCCCCCN1 (configuration not stated)
TGI: > 100 µM
--
Compound: C=C(CN1CCN(c2ccc(C(F)(F)F)cc2)CC1)c1ccc(C(=O)Nc2ccccc2N)cc1
TGI: > 100 µM
--
Compound: CC(Oc1ccccc1Cl)C(=O)NN1C(=O)CC(=O)N(c2ccccc2)C1=S (configuration not stated)
TGI: > 100 µM
--
Compound: CCCCOC(=O)c1ccc(N)cc1
TGI: > 100 µM
--
Compound: CO[C@H]1C=CO[C@@]2(C)Oc3c(C)c(O)c4c(O)c(c(CN5CCN(C)CC5)c(O)c4c3C2=O)NC(=O)/C(C)=C\C=C[C@H](C)[C@H](O)C(C)[C@@H](O)C(C)[C@H](OC(C)=O)[C@@H]1C (some centres not stated)
TGI: > 72.8 µM
--
Compound: N#CC(/C(CCC(=O)Nc1ccc(Cl)cc1)=N/NC(=O)c1cc2ccccc2cc1O)c1ccccc1 (configuration not stated)
TGI: > 100 µM
--
Compound: CC12C3C4C1C1C2C3C41CO (configuration not stated)
TGI: > 100 µM
--
Compound: COC(=O)C1=C(O)[C@H](C(=O)OC)C2(O)C(C(=O)OC)[C@H](c3ccc(OC(=O)C(C)c4ccccc4)cc3)C[C@@H]1[C@@H]2C(=O)OC (some centres not stated)
TGI: > 50 µM
--
Compound: N.N.N.N.N.NC(=O)[O-].[Co+3].[I-]
TGI: > 100 µM
--
Compound: Cc1[nH]c(=O)[nH]c(=O)c1/C=C/C(=O)O (tested in a mixture with another compound)
TGI: > 625 µM
--
Compound: O=C1C(=O)N(c2ccc(Cl)cc2)C(=O)C(=O)C1c1nc2ccccc2o1
TGI: > 100 µM
